PROPERTY MEASURED: melting point

Known melting point results, listed for orientation:
* NNc1cc2c(nn1)CCN(C(=O)c1ccccc1F)C2 | 210 to 213 °C
* COc1cccc(CNc2ncnc3c2sc2nc(N4CCOCC4)c4c(c23)CC(C)(C)CC4)c1OC | 219 to 220 °C
* Cc1cc(C)c2ncc([N+](=O)[O-])c(-c3ccccc3Cl)c2c1 | 130 to 131 °C

Measured melting point of "CON=C(Nc1nc(C)cc(C)n1)NS(=O)(=O)c1ccccc1S(=O)(=O)OC" : 130 to 138 °C

// field: melting point; key: "O=c1[nH]c2ccccc2n1CCN1CCN(c2cc(O)cc(C(F)(F)F)c2)CC1" ; value = 170 °C
